- System: BT-549
- test_summary: Cytotoxicity against human BT549 cells after 48 hrs by SRB assay
- Format: functional
- measurement_parameters: BT-549, 48 h
Some compounds, each annotated with its measured GI50.
measure: GI50

compound_structure | target_or_system | val
CN1C(=O)C(=Cc2cn(Cc3ccc(Cl)cc3)c3ccccc23)C(=O)N(C)C1=O | BT-549 | 12.5 µM
COc1ccc(Cn2cc(C=C3C(=O)N(C)C(=O)N(C)C3=O)c3ccccc32)cc1 | BT-549 | 4.94 µM
CN1C(=O)C(=Cc2cn(Cc3ccc(F)cc3)c3ccccc23)C(=O)N(C)C1=O | BT-549 | 24.1 µM
Cc1ccc(Cn2cc(C=C3C(=O)N(C)C(=O)N(C)C3=O)c3ccccc32)cc1 | BT-549 | 13.5 µM
